Values from BigSolDB 2.1

- experimental.conditions: in isobutanol, 283.15 K
quantity.measured: solubility (mole fraction)

[[record]]
compound = "CC1(C)[C@H](C(=O)O)[C@@H]1/C=C(\\Cl)C(F)(F)F (racemic)"
result_value = 0.0701


###

- experimental.conditions: in methyl acetate, 283.15 K
quantity.measured: solubility (mole fraction)

[[record]]
compound = "CC1(C)[C@H](C(=O)O)[C@@H]1/C=C(\\Cl)C(F)(F)F (racemic)"
result_value = 0.0727


###

- experimental.conditions: in n-propanol, 288.15 K
quantity.measured: solubility (mole fraction)

[[record]]
compound = "CC1(C)[C@H](C(=O)O)[C@@H]1/C=C(\\Cl)C(F)(F)F (racemic)"
quantity_measured = "solubility (mole fraction)"
result_value = 0.0829

